Every entry's value here was drawn from patent US20050282739A1.

molecular target: T1, human melanocortin-5 receptor (hMC5-R) (human, UniProt P33032 1-325); experiment: 125I-NDP-α-MSH competition, hMC5-R membranes
T1 construct: whole, on cells; membranes prepared from hMC5-R cells were used; also called Melanocortin Receptor 5
T1 sequence (P33032 whole entry): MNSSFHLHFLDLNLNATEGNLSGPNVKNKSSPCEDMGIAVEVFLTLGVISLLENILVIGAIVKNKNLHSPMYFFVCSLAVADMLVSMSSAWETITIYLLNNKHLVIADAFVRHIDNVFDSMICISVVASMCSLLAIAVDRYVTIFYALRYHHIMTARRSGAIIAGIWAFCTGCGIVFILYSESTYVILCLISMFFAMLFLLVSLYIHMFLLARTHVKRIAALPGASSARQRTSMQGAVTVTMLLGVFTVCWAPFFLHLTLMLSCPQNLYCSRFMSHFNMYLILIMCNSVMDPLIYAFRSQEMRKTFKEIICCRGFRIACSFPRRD
Square brackets hold non-standard residues; d marks the D form. Ends that are not written are not given here. Nle = CCCC[C@H](N)C(=O)O
measurement.type: % Inhibition at 1 µM (%)
Express your answer in %, writing the number without its unit.

Ac-SYS[Nle]EHF[dC]RWGKPV-NH2 (also: oxorhenium(V) N3S1 chelate at D-Cys8) [metallopeptide 2-7]; 0

Request: Data request, read-out % Inhibition at 1 µM, for Ac-SYS[Nle][dC]EHFRWGKPV-NH2 (also: oxorhenium(V) N3S1 chelate at D-Cys5) [metallopeptide 2-10]
Result: 0

Request: YV[Nle]GHFCRWDRF-NH2 (also: oxorhenium(V) N3S1 chelate: C7 SG + backbone N of H5, F6, C7, bridge at 7 via Re(V)=O, other end not in the chain) [metallopeptide 4-6]
Result: 24

Request: Ac-SYS[Nle]EHFRW[dC]GKPV-NH2 (also: oxorhenium(V) N3S1 chelate at D-Cys10) [metallopeptide 2-5]
Result: 0

Request: YV[Nle]GHFRCWDRF-NH2 (also: oxorhenium(V) N3S1 chelate: C8 SG + backbone N of F6, R7, C8, bridge at 8 via Re(V)=O, other end not in the chain) [metallopeptide 4-5]
Result: 68

Request: YV[Nle]GCHFRWDRF-NH2 (also: oxorhenium(V) N3S1 chelate: C5 SG + backbone N of X3, G4, C5, bridge at 5 via Re(V)=O, other end not in the chain) [metallopeptide 4-8]
Result: 45

Request: Ac-SYS[Nle]EHFRWG[dC]KPV-NH2 (also: oxorhenium(V) N3S1 chelate at D-Cys11) [metallopeptide 2-4]
Result: 21

Request: Ac-SYS[Nle]EHFR[dC]WGKPV-NH2 (also: oxorhenium(V) N3S1 chelate at D-Cys9) [metallopeptide 2-6]
Result: 6

Request: YVC[Nle]GHFRWDRF-NH2 (bridge (positions not given here); not fully specified (bridges); printed as Tyr-Val-Cys-Nle-Gly-His-Phe-Arg-Trp-Asp-Arg-Phe-NH2.; also: oxorhenium(V) N3S1 complex) [metallopeptide 4-10]
Result: 17

Request: Ac-SYS[dC][Nle]EHFRWGKPV-NH2 (also: oxorhenium(V) N3S1 chelate at D-Cys4) [metallopeptide 2-11]
Result: 0

Request: Ac-SY[dC]S[Nle]EHFRWGKPV-NH2 (also: oxorhenium(V) N3S1 chelate at D-Cys3) [metallopeptide 2-12]
Result: 17

Request: YV[Nle]GHFRWCDRF-NH2 (also: oxorhenium(V) N3S1 chelate: C9 SG + backbone N of R7, W8, C9, bridge at 9 via Re(V)=O, other end not in the chain) [metallopeptide 4-4]
Result: 47
